Where do these numbers come from? They come from patent US8791132B2.

biological target: rat adrenergic α1B receptor (Rattus norvegicus); construct: rat adrenergic α1B receptor obtained from Wistar Rat liver; from tissue; host or cells: Wistar rat liver; assay: Radioligand binding, adrenergic α1B ([3H]Prazosin); details: compound at 0.1 μM; [3H]Prazosin; repeat assays, each datapoint shown; 0.1 µM
Sequence (P15823 whole entry): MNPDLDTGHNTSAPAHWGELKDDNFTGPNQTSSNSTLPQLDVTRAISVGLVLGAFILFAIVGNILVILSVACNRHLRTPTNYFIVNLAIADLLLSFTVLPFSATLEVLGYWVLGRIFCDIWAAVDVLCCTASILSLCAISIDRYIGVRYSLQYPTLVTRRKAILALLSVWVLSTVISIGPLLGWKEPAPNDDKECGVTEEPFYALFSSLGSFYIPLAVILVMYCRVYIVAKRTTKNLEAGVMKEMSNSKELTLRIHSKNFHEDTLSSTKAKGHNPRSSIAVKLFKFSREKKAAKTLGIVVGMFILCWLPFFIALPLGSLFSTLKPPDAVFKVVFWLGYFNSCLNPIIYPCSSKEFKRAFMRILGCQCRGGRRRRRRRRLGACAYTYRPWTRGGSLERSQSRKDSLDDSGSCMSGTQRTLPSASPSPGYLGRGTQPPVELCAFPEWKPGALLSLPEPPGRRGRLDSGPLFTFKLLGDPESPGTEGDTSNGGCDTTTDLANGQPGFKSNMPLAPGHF
Output Y for Percentage inhibition of ligand binding, Adrenergic α1B not less than 40%; output N otherwise.

Take a look at these entries with their results.
{"columns": ["molecule", "measuredTarget", "labelClass"],
 "data": [
  ["Cc1ccc2c(c1)c1c(n2CC(O)c2cccnc2)CN(C)CC1 (single isomer, unassigned) [43a]", "rat adrenergic α1B receptor (Rattus norvegicus)", "N"],
  ["COc1ccc(C(O)Cn2c3c(c4cc(C)ccc42)CN(C)CC3)cn1 (single isomer, unassigned) [51b]", "rat adrenergic α1B receptor (Rattus norvegicus)", "N"],
  ["Cc1ccc2c(c1)c1c(n2CC(O)c2ccncc2)CC2CCCN2C1 (single isomer, unassigned) [76a]", "rat adrenergic α1B receptor (Rattus norvegicus)", "Y"],
  ["Cc1ccc2c(c1)c1c(n2CC(C)(O)c2ccc(F)cc2)CCN(C)C1 (single isomer, unassigned) [90a]", "rat adrenergic α1B receptor (Rattus norvegicus)", "Y"],
  ["CN1CCc2c(c3ccc(Cl)cc3n2CC(O)c2ccncc2)C1 (single isomer, unassigned) [53b]", "rat adrenergic α1B receptor (Rattus norvegicus)", "N"],
  ["Cc1ccc2c(c1)c1c(n2CC(C)(O)c2ccncc2)CN(C)CC1 (single isomer, unassigned) [19b]", "rat adrenergic α1B receptor (Rattus norvegicus)", "Y"],
  ["Cc1ccc2c(c1)c1c(n2CC(C)(O)c2cccnc2)CCN(C)C1 (stereo not shown) [compound 5]", "rat adrenergic α1B receptor (Rattus norvegicus)", "N"],
  ["Cc1ccc2c(c1)c1c(n2CC(O)c2cccnc2)CN(C)CC1 (single isomer, unassigned) [43b]", "rat adrenergic α1B receptor (Rattus norvegicus)", "Y"],
  ["Cc1cnc2c(c1)c1c(n2CC(O)c2ccncc2)CCNC1 (stereo not shown) [compound 58]", "rat adrenergic α1B receptor (Rattus norvegicus)", "N"],
  ["Cc1ccc2c(c1)c1c(n2CC(C)(O)c2ccc(F)cc2)CCN(C)C1 (stereo not shown) [compound 90]", "rat adrenergic α1B receptor (Rattus norvegicus)", "Y"]
]}

With those in mind, consider the next molecule.
For this molecule, is measured Percentage inhibition of ligand binding, Adrenergic α1B 40% or higher? Cc1ccc2c(c1)c1c(n2CC(O)c2ccncc2)CC2CCCN2C1 (single isomer, unassigned) [76d]
Y

====

molecular target: human recombinant adrenergic α2A receptor (Homo sapiens); construct: expressed in transfected cells; host or cells: insect Sf9 cells; test: Radioligand binding, adrenergic α2A ([3H]MK-912); settings: compound at 0.1 μM; [3H]MK-912; repeat assays, each datapoint shown; 0.1 µM
Sequence (P08913 whole entry): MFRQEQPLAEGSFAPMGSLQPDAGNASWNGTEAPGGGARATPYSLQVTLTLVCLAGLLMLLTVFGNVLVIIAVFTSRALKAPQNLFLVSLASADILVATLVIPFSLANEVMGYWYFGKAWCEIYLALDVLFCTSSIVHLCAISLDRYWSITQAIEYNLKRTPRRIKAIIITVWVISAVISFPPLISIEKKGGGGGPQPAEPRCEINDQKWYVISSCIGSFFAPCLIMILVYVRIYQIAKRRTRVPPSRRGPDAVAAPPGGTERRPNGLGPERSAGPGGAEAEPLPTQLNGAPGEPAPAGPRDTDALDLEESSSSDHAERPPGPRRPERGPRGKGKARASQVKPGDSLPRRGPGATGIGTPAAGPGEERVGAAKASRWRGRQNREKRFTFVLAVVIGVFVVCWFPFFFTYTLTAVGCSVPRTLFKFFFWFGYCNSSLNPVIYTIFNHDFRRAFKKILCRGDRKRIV
endpoint: Percentage inhibition of ligand binding, Adrenergic α2A (%)
Answer format: numeric, % implied, no suffix.

Consider the reported Percentage inhibition of ligand binding, Adrenergic α2A for these compounds:
{"columns": ["compound", "readoutNumber"],
 "data": [
  ["Cc1ccc2c(c1)c1c(n2CC(O)c2ccncc2)CCN2CCCCC12 (single isomer, unassigned) [47b]", 41],
  ["Cc1ccc2c(c1)c1c(n2CC(O)c2ccccn2)CN(C)CC1 (single isomer, unassigned) [22b]", 0],
  ["CN1Cc2c(n(CC(O)c3ccncc3)c3ncccc23)C(C)(C)C1 (single isomer, unassigned) [17a]", 19]
]}

Next item in the queue.
Field request: Percentage inhibition of ligand binding, Adrenergic α2A | item: Cc1ccc2c(c1)c1c(n2CC(O)c2ccccn2)CN(C)CC1 (single isomer, unassigned) [22a]
16
